The entries that follow carry IC50 values tested on UniProt:P35463, drawn from several published reports.
Sequence (P35463 whole entry): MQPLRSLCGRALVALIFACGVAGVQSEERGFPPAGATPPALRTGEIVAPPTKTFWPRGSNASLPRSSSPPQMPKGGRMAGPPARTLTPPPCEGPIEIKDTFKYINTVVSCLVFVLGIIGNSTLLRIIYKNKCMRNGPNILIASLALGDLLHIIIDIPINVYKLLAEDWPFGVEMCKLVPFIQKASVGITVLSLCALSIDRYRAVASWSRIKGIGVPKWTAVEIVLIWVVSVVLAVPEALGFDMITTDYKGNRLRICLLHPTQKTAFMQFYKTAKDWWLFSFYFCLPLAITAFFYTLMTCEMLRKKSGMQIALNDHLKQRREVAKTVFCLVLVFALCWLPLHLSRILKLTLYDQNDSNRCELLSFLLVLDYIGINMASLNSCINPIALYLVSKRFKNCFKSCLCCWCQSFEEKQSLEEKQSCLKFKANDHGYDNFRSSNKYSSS
Result Type: IC50 (nM)

# Compound, Test Result
data = [
    ("COc1cccc(C(=O)/C(Cc2cc(OC)c(OC)c(OC)c2)=C(\\C(=O)O)c2ccc3nsnc3c2)c1", 1800),
    ("COc1ccc(CN(C(=O)/C=C/c2ccc3c(c2)OCO3)C(Cc2c[nH]c3ccccc23)C(=O)O)cc1 (centres undefined)", 470),
    ("CCCCCS(=O)(=O)N(CCC)CCN1C[C@H](c2ccc3c(c2)OCO3)[C@@H](C(=O)O)[C@@H]1c1ccc2c(c1)OCCO2", 7),
    ("CCCCN(CCCC)C(=O)CN1C[C@H](c2ccc3c(c2)OCC3)[C@@H](C(=O)O)[C@@H]1c1ccc(OC)cc1", 960),
]
